We begin with a simple list: items and their reported self-aminoacylation.
Tested on: biotinyl-Trp-oxazolone
method_notes: self-aminoacylation, catalytic enhancement (BWO) (fold over background); higher = more active; k-Seq, kA / k0A0; sequences stand for … in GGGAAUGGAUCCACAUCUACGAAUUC…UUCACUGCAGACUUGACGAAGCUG
This sample holds only a part of the variants without activity.
API doc: respond with a numeric literal and nothing else, no unit.

CCACACUUCUAGCAAUCGAUC [Fam1B.1 aminoacylation ribozyme variant] = 0.432
AUGCAACUAGGUCAUCGGGUG [Fam2.2 aminoacylation ribozyme variant] = 8.26

Data request: I'm curious: which self-aminoacylation was measured for AUUACCCUGGUCAUGGAGUUA [Fam2.1 aminoacylation ribozyme variant] tested on biotinyl-Trp-oxazolone?
Data returned: 0.695

Data request: I'm curious: which self-aminoacylation was measured for AUUACCCUGGUCAUCGCGUGG [Fam2.1 aminoacylation ribozyme variant] tested on biotinyl-Trp-oxazolone?
Data returned: 5.28

Data request: I'm curious: which self-aminoacylation was measured for AUUACCCUGACCAUCGAGUGA [Fam2.1 aminoacylation ribozyme variant] tested on biotinyl-Trp-oxazolone?
Data returned: 5.06

---

Test system: biotinyl-Val-oxazolone
method_notes: self-aminoacylation, catalytic enhancement (BVO) (fold over background); higher = more active; k-Seq, kA / k0A0; sequences stand for … in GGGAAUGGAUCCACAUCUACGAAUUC…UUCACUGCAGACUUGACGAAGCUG
Fewer inactive variants are shown than the library holds.
Label yes when self-aminoacylation is at or above 3; otherwise label no.

AUUACCAUGGUCAGCGAGUGA [Fam2.1 aminoacylation ribozyme variant] = yes
CUACUACAAACAAGCGGUCUG [Fam1A.1 aminoacylation ribozyme variant] = no
AGUAGCCUGGUCAUCGAGUGA [Fam2.1 aminoacylation ribozyme variant] = yes
AUUUCCCGGGUCAUCGAGUGA [Fam2.1 aminoacylation ribozyme variant] = yes
CCACACUUCAAGCAAUCGGUG [Fam1B.1 aminoacylation ribozyme variant] = yes
AUUCACCUAGGUCCUCGGGGG [Fam2.2 aminoacylation ribozyme variant] = no

Data request: Textbook exercise: given the entry AAGUUUGCUAAUAGCCGCCAG [Fam3.1 aminoacylation ribozyme variant] , state whether its self-aminoacylation is greater than or equal to 3.
Data returned: no

Data request: Textbook exercise: given the entry CUUCAACUAGGUCAUCGGGUG [Fam2.2 aminoacylation ribozyme variant] , state whether its self-aminoacylation is greater than or equal to 3.
Data returned: yes

Data request: Textbook exercise: given the entry AAGUUUGCUUAUAGUCGCUAG [Fam3.1 aminoacylation ribozyme variant] , state whether its self-aminoacylation is greater than or equal to 3.
Data returned: no

---

Tested on: biotinyl-Val-oxazolone
method_notes: self-aminoacylation, catalytic enhancement (BVO) (fold over background); higher = more active; k-Seq, kA / k0A0; sequences stand for … in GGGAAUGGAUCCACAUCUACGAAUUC…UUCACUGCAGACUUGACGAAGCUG
Fewer inactive variants are shown than the library holds.
Grouping key: self-aminoacylation. Bins: LOW (below 0.9), MID (0.9 to below 2), HIGH (2 or more)

AAGUCUGCUAGUAGUCGCAAG [Fam3.1 aminoacylation ribozyme variant] = MID
UUUACCCUGGGCAUCGAGUGA [Fam2.1 aminoacylation ribozyme variant] = HIGH
CAGUUUGGUAAUAGUCGCAAG [Fam3.1 aminoacylation ribozyme variant] = MID
AUUACGCUGGUCAUCGAGUCA [Fam2.1 aminoacylation ribozyme variant] = MID
CUACUACAAACAAUCCGUCUG [Fam1A.1 aminoacylation ribozyme variant] = LOW

Data request: Which band does CUAUUUCAAACAAUCGGUCUA [Fam1A.1 aminoacylation ribozyme variant] fall in?
Data returned: LOW

Data request: Which band does CCACACUUCAAUUAAUCGGUC [Fam1B.1 aminoacylation ribozyme variant] fall in?
Data returned: MID

Data request: Which band does AUUCACCUAGGUCAUCGGUAG [Fam2.2 aminoacylation ribozyme variant] fall in?
Data returned: LOW

Data request: Which band does AUUACCAUGGUCAUCGAGAGA [Fam2.1 aminoacylation ribozyme variant] fall in?
Data returned: LOW

Data request: Which band does AUUCACCUAGGUCAGCGGGUG [Fam2.2 aminoacylation ribozyme variant] fall in?
Data returned: HIGH

Data request: Which band does CCACACUCCAAGCAAUCGGUC [Fam1B.1 aminoacylation ribozyme variant] fall in?
Data returned: MID

Data request: Which band does AUUACCCGGGUCAGCGAGUGA [Fam2.1 aminoacylation ribozyme variant] fall in?
Data returned: HIGH

Data request: Which band does CCACGCUACAAGCAAUCGGUC [Fam1B.1 aminoacylation ribozyme variant] fall in?
Data returned: MID

Data request: Which band does AUUCGCCUAGUUCAUCGGGUG [Fam2.2 aminoacylation ribozyme variant] fall in?
Data returned: HIGH

Data request: Which band does CCAUACUUCAAGUAAUCGGUC [Fam1B.1 aminoacylation ribozyme variant] fall in?
Data returned: LOW

Data request: Which band does CCACACUUAAAGAAAUCGGUC [Fam1B.1 aminoacylation ribozyme variant] fall in?
Data returned: LOW

Data request: Which band does AUUCACCUACGUCAUCCGGUG [Fam2.2 aminoacylation ribozyme variant] fall in?
Data returned: HIGH

Source of measurements: the supplement of paper PMC9233669
